- System: P. aeruginosa expressing IMP-1, efflux+ (MB9798)
- Assay type: cell-based, Pseudomonas aeruginosa
- condition-notes: ratio MITC95 PA_9798/MITC95 PA_9799
Flag rule - Efflux ratio less than 2 flags label 1; the remaining entries get label 0.

Examples with answers:
>  <compound>
Nc1nc2cccc(-c3ccc(S(=O)(=O)[C@H]4CC[C@@H](N)CC4)c(S(N)(=O)=O)c3-c3nn[nH]n3)c2[nH]1 [Example 177]

>  <measurement-target>
P. aeruginosa expressing IMP-1, efflux+ (MB9798)

>  <qualitative-label>
label 1

$$$$
>  <compound>
NCCN1CC(S(=O)(=O)c2ccc(-c3cccc4[nH]c(N)nc34)c(-c3nn[nH]n3)c2S(N)(=O)=O)C1 [Example 51]

>  <measurement-target>
P. aeruginosa expressing IMP-1, efflux+ (MB9798)

>  <qualitative-label>
label 1

$$$$
>  <compound>
Nc1nc2cccc(-c3ccc(S(=O)(=O)[C@H]4C[C@@H](N)C4)c(S(N)(=O)=O)c3-c3nn[nH]n3)c2[nH]1 [Example 176]

>  <measurement-target>
P. aeruginosa expressing IMP-1, efflux+ (MB9798)

>  <qualitative-label>
label 1

$$$$
>  <compound>
Nc1nc2c(-c3ccc(S(=O)(=O)C4CNC4)c(S(N)(=O)=O)c3-c3nn[nH]n3)cccn2n1 [Example 216]

>  <measurement-target>
P. aeruginosa expressing IMP-1, efflux+ (MB9798)

>  <qualitative-label>
label 0

$$$$
>  <compound>
NCCS(=O)(=O)c1ccc(-c2cccc(N3CCS(=O)(=O)CC3)c2)c(-c2nnn[nH]2)c1S(N)(=O)=O.O=C(O)C(F)(F)F [Example 158]

>  <measurement-target>
P. aeruginosa expressing IMP-1, efflux+ (MB9798)

>  <qualitative-label>
label 0

$$$$
>  <compound>
CCn1c(N)nc2c(-c3ccc(S(=O)(=O)CCN)c(S(N)(=O)=O)c3-c3nn[nH]n3)cccc21 [Example 284]

>  <measurement-target>
P. aeruginosa expressing IMP-1, efflux+ (MB9798)

>  <qualitative-label>
label 0

$$$$
>  <compound>
C[C@@H](CN)S(=O)(=O)c1ccc(-c2cccc3c2nc(N)n3C)c(-c2nn[nH]n2)c1S(N)(=O)=O [Example 280]

>  <measurement-target>
P. aeruginosa expressing IMP-1, efflux+ (MB9798)

>  <qualitative-label>
label 0

$$$$
>  <compound>
CS(=O)(=O)c1ccc(-c2ccc(C3CCNCC3)cc2)c(-c2nnn[nH]2)c1S(N)(=O)=O [Example 236]

>  <measurement-target>
P. aeruginosa expressing IMP-1, efflux+ (MB9798)

>  <qualitative-label>
label 0

$$$$

Query: Record NC[C@H](O)CS(=O)(=O)c1ccc(-c2cccc3[nH]cnc23)c(-c2nn[nH]n2)c1S(N)(=O)=O [Example 353] : is its Efflux ratio strictly below 2?
Response: label 1

Query: Record NCCS(=O)(=O)c1ccc(-c2cnc3[nH]ccc3c2)c(-c2nnn[nH]2)c1S(N)(=O)=O.O=C(O)C(F)(F)F [Example 149] : is its Efflux ratio strictly below 2?
Response: label 0

###

- measurement-target: IMP-1 (Serratia marcescens, UniProt P52699)
- Sequence (P52699 whole entry, looked up, species assumed): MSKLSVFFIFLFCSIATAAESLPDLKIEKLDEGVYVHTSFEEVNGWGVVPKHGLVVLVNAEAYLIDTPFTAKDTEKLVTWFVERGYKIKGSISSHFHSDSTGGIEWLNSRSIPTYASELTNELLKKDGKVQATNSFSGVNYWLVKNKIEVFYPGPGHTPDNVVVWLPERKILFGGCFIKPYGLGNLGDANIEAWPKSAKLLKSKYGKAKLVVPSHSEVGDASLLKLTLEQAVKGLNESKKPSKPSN
- experiment-notes: biochemical
- Format: biochemical
- condition-notes: CCF2-FA substrate, 2 hours at 25° C; read-out: IMP-1 IC50
reported-property: IC50 (nM)
API: value field is a number in nM; no unit string.

>  <compound>
NCCS(=O)(=O)c1ccc(-c2cccc(NC(=O)[C@H](N)CO)c2)c(-c2nn[nH]n2)c1S(N)(=O)=O [compound 334]

>  <measurement-target>
IMP-1 (Serratia marcescens, UniProt P52699)

>  <readout-value>
4.54

$$$$
>  <compound>
CCCS(=O)(=O)c1ccc(C2=CCC(N)CC2)c(-c2nnn[nH]2)c1S(N)(=O)=O (centres unmarked) [Example 211]

>  <measurement-target>
IMP-1 (Serratia marcescens, UniProt P52699)

>  <readout-value>
6.32

$$$$
>  <compound>
NC[C@@H](O)CS(=O)(=O)c1ccc(-c2ccc(N)nc2)c(-c2nn[nH]n2)c1S(N)(=O)=O [Example 364]

>  <measurement-target>
IMP-1 (Serratia marcescens, UniProt P52699)

>  <readout-value>
0.486

$$$$

Query: Look up IC50: NS(=O)(=O)c1c(S(=O)(=O)C2CNC2)ccc(-c2ccnc3[nH]nnc23)c1-c1nn[nH]n1 [Example 200]
Response: 13.7

Query: Look up IC50: NCCS(=O)(=O)c1ccc(-c2cnc3cccnc3c2)c(-c2nnn[nH]2)c1S(N)(=O)=O.O=C(O)C(F)(F)F [Example 134, 2,2,2-trifluoroacetate]
Response: 2.47

Query: Look up IC50: Cn1c(N)nc2c(-c3ccc(S(=O)(=O)C[C@H](O)CN)c(S(N)(=O)=O)c3-c3nn[nH]n3)cccc21 [Example 362]
Response: 0.408

Query: Look up IC50: NS(=O)(=O)c1c(S(=O)(=O)C2CNC2)ccc(-c2ccnc(N3CCNC3=O)c2)c1-c1nnn[nH]1 [Example 343]
Response: 1.89

Query: Look up IC50: NCCS(=O)(=O)c1ccc(-c2cccc3sc(N)nc23)c(-c2nn[nH]n2)c1S(N)(=O)=O [Example 313]
Response: 0.257

Query: Look up IC50: NS(=O)(=O)c1c(S(=O)(=O)C2CNC2)ccc(-c2cnc3cc[nH]c3c2)c1-c1nn[nH]n1 [Example 16]
Response: 2.37

Query: Look up IC50: NCCNC(=O)c1cc(-c2ccc(S(=O)(=O)CCN)c(S(N)(=O)=O)c2-c2nn[nH]n2)cnc1N [compound 337]
Response: 12.3

###

# reported pIC50; entries follow
- measurement-target: UniProt P52699
- experiment-notes: biochemical
- Assay type: biochemical
- condition-notes: CCF2-FA substrate, 2 hours at 25° C; read-out: IMP-1 IC50
The value called pIC50 is obtained by taking minus log10 of the concentration in mol/L.

Query: Look up pIC50: NCCS(=O)(=O)c1ccc(-c2ccc3c(c2)CC(=O)N3)c(-c2nnn[nH]2)c1S(N)(=O)=O.O=C(O)C(F)(F)F [Example 157, 2,2,2-trifluoroacetate]
Response: 8.72

Query: Look up pIC50: Nc1nc2c(-c3ccc([S+]([O-])C4CNC4)c(S(N)(=O)=O)c3-c3nn[nH]n3)cccc2[nH]1 (stereo not drawn)
Response: 7.29

Query: Look up pIC50: CC(=O)Nc1ccc(-c2ccc(S(=O)(=O)CCN)c(S(N)(=O)=O)c2-c2nnn[nH]2)cn1.O=C(O)C(F)(F)F [Example 135, 2,2,2-trifluoroacetate]
Response: 8.78

Query: Look up pIC50: NS(=O)(=O)c1c(S(=O)(=O)C2CNC2)ccc(-c2ccc3ncnn3c2)c1-c1nnn[nH]1.O=C(O)C(F)(F)F [Example 104, 2,2,2-trifluoroacetate]
Response: 8.45

Query: Look up pIC50: Nc1nc2c(-c3ccc(S(=O)(=O)CC4(N)CC4)c(S(N)(=O)=O)c3-c3nn[nH]n3)cccc2s1
Response: 9.66

Query: Look up pIC50: COC(=O)c1nc2c(-c3ccc(S(=O)(=O)C4CNC4)c(S(N)(=O)=O)c3-c3nn[nH]n3)cccc2[nH]1
Response: 9.37

###

# reported log10 of IC50; entries follow
- measurement-target: UniProt P52699
- experiment-notes: biochemical
- Assay type: biochemical
- condition-notes: CCF2-FA substrate, 2 hours at 25° C; read-out: IMP-1 IC50
A difference of one corresponds to tenfold IC50; all values are log10 with IC50 in nM.

Illustrative cases are given below, each with its answer.
>  <compound>
NS(=O)(=O)c1c(S(=O)(=O)C2CNC2)ccc(-c2cccc3ncccc23)c1-c1nnn[nH]1.O=C(O)C(F)(F)F [Example 118, 2,2,2-trifluoroacetate]

>  <log10 of IC50>
0.15

$$$$
>  <compound>
NCCS(=O)(=O)c1ccc(-c2cnc(N)c(F)c2)c(-c2nnn[nH]2)c1S(N)(=O)=O.O=C(O)C(F)(F)F [Example 168, 2,2,2-trifluoroacetate]

>  <log10 of IC50>
0.31

$$$$
>  <compound>
Nc1nc2cc(-c3ccc(S(=O)(=O)C4CNC4)c(S(N)(=O)=O)c3-c3nn[nH]n3)ccc2[nH]1

>  <log10 of IC50>
0.30

$$$$
>  <compound>
NS(=O)(=O)c1c(S(=O)(=O)CC2CNC2)ccc([C@H]2CC[C@@H](N)CC2)c1-c1nnn[nH]1

>  <log10 of IC50>
1.92

$$$$
>  <compound>
C[C@H](CN)S(=O)(=O)c1ccc(-c2cccc3sc(N)nc23)c(-c2nn[nH]n2)c1S(N)(=O)=O

>  <log10 of IC50>
-0.27

$$$$

Query: Look up log10 of IC50: Nc1cc2cccc(-c3ccc(S(=O)(=O)C4CNC4)c(S(N)(=O)=O)c3-c3nn[nH]n3)c2cn1
Response: -0.30

Query: Look up log10 of IC50: COc1ccc(-c2ccc(S(=O)(=O)CCN)c(S(N)(=O)=O)c2-c2nnn[nH]2)c2[nH]c(C(F)(F)F)nc12.O=C(O)C(F)(F)F [Example 164, 2,2,2-trifluoroacetate]
Response: -0.63

Query: Look up log10 of IC50: Cc1ccc(-c2ccc(S(C)(=O)=O)c(S(N)(=O)=O)c2-c2nn[nH]n2)c2nc(N)sc12
Response: -1.03

Query: Look up log10 of IC50: CCOC(=O)Nc1nc2c(-c3ccc(S(=O)(=O)CCN)c(S(N)(=O)=O)c3-c3nn[nH]n3)cccc2s1
Response: -0.84

Query: Look up log10 of IC50: Nc1nc2cc(F)cc(-c3ccc(S(=O)(=O)C4CNC4)c(S(N)(=O)=O)c3-c3nnn[nH]3)c2[nH]1
Response: -0.30

Query: Look up log10 of IC50: NCCS(=O)(=O)c1ccc(-c2cccc3[nH]c(C(=O)O)nc23)c(-c2nn[nH]n2)c1S(N)(=O)=O
Response: -0.41

Query: Look up log10 of IC50: NCCS(=O)(=O)c1ccc(-c2cccc3[nH]c(CC(N)C(=O)O)nc23)c(-c2nn[nH]n2)c1S(N)(=O)=O (stereo not drawn)
Response: 0.56

Query: Look up log10 of IC50: Cc1ccc(-c2ccc(S(=O)(=O)CCN)c(S(N)(=O)=O)c2-c2nn[nH]n2)c2nc(N)[nH]c12
Response: -0.45

Query: Look up log10 of IC50: Nc1nc2ccc(-c3ccc([S+]([O-])C4CCNCC4)c(S(N)(=O)=O)c3-c3nn[nH]n3)cc2[nH]1 (stereo not drawn)
Response: 2.11

Query: Look up log10 of IC50: NCc1nc2c(-c3ccc(S(=O)(=O)C[C@@H](O)CN)c(S(N)(=O)=O)c3-c3nn[nH]n3)cccc2[nH]1
Response: 0.55

Query: Look up log10 of IC50: Nc1nc2cccc(-c3ccc(S(=O)(=O)C4CNC4)c(S(N)(=O)=O)c3-c3nn[nH]n3)c2s1
Response: -0.18

Query: Look up log10 of IC50: NS(=O)(=O)c1c(SC2CNC2)ccc(-c2cccc3nccn23)c1-c1nnn[nH]1
Response: 2.10

Query: Look up log10 of IC50: Nc1nc2cccc(-c3ccc(SC4CCNCC4)c(S(N)(=O)=O)c3-c3nn[nH]n3)c2[nH]1
Response: 2.04

Query: Look up log10 of IC50: Nc1nc2c(-c3ccc(S(=O)(=O)C4CCNCC4)c(S(N)(=O)=O)c3-c3nn[nH]n3)cccc2[s+]1[O-] (stereo not drawn)
Response: -0.08

Query: Look up log10 of IC50: NS(=O)(=O)c1c(S(=O)(=O)C2CNC2)ccc(-c2cccc3scnc23)c1-c1nn[nH]n1
Response: -0.82

Query: Look up log10 of IC50: Nc1nc2ccc(-c3ccc(S(=O)(=O)C4CNC4)c(S(N)(=O)=O)c3-c3nn[nH]n3)cn2n1
Response: 0.34

Query: Look up log10 of IC50: NS(=O)(=O)c1c(S(=O)(=O)C2CNC2)ccc(-c2cccc3cn[nH]c23)c1-c1nnn[nH]1
Response: -0.22

Query: Look up log10 of IC50: Cn1c(N)nc2c(-c3ccc(S(=O)(=O)C[C@@H](O)CN)c(S(N)(=O)=O)c3-c3nn[nH]n3)cccc21
Response: -0.37
